molecular target: Btk (Homo sapiens); construct: purchased Promega (Madison, Wis.); experiment: Btk kinase assay (ADP-Glo); type: biochemical; settings: ADP-Glo Btk kinase assay kit; ATP 1.2 μM; 60 minutes at room temperature
So I've got a bunch of compounds here, and I need their IC50 values.
Answer format: numeric, µM implied, no suffix.

Ask: Give a short answer stating reported IC50 for C=CC(=O)N1CC[C@@H](Nc2ncnc3[nH]c(C#CCOc4ccccc4)cc23)C1 .
Reply: 0.0003

Ask: Item COc1ccccc1OCC#Cc1nc2c(NC3CCN(C(=O)/C=C/CN(C)C)C3)ncnc2[nH]1 (centres unmarked) : provide IC50
Reply: 0.0004

Ask: Report measured IC50; entry is C=CC(=O)N1CCC(Nc2ncnc3[nH]c(C#CCOc4cc(F)cc(F)c4)nc23)C1 (centres unmarked)
Reply: 0.212

Ask: Using known records, supply IC50 for C=CC(=O)N1CCC(N(C)c2ncnc3[nH]c(C#CCOc4ccccc4)cc23)C1 (centres unmarked)
Reply: 0.384

Ask: Please report the measured IC50 for C=CC(=O)N1CC[C@@H](Nc2ncnc3[nH]c(C#CCOc4ccccc4)nc23)C1
Reply: 0.0016

Ask: Answer with reported IC50 of C=CC(=O)N1CC[C@@H](Nc2ncnc3[nH]c(C#CCOC4CCCCO4)cc23)C1 (some centres unmarked)
Reply: 0.136

Ask: Give the reported value of IC50 for this record: CN(C)C/C=C/C(=O)N1CC[C@@H](Nc2ncnc3[nH]c(C#CCOc4ccccc4)nc23)C1
Reply: 0.0075

Ask: Tell me its IC50 given C=CC(=O)N1CC[C@@H](Nc2ncnc3[nH]c(C#Cc4cccc(OC(F)(F)F)c4)cc23)C1 as the entry.
Reply: 0.173

----------
molecular target: Btk (Homo sapiens, UniProt Q06187); construct: purchased Promega (Madison, Wis.); test: Btk kinase assay (ADP-Glo); format: biochemical; settings: ADP-Glo Btk kinase assay kit; ATP 1.2 μM; 60 minutes at room temperature
Sequence (Q06187 whole entry): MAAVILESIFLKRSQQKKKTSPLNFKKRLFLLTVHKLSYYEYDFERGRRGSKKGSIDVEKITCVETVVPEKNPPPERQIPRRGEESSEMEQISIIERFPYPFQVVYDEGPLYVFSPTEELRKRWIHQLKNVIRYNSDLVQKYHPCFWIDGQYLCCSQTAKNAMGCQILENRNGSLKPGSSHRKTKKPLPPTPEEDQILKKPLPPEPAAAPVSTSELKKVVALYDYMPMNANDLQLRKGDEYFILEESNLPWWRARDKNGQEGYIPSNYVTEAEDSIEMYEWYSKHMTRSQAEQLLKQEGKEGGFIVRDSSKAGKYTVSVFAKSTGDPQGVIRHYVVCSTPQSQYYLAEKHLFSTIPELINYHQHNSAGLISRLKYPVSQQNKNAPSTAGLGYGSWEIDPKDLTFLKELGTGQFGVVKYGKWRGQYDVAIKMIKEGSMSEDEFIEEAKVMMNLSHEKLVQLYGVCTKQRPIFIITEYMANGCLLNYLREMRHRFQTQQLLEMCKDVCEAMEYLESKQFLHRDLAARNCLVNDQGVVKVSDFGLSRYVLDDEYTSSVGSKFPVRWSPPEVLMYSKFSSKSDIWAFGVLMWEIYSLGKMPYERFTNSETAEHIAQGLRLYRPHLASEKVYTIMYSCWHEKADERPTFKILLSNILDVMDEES
reported metric: IC50 (nM)
Return type: number; implicit unit nM.

Ask: Hello, please tell me recorded IC50 for this one: CN(C)C/C=C/C(=O)N1CCC(Nc2ncnc3[nH]c(C#CCOc4ccc(F)cc4)nc23)C1 (stereo not shown)
Reply: 0.02

Ask: Report measured IC50; entry is C=CC(=O)N1CC[C@@H](Nc2ncnc3[nH]c(C#CCOc4cccc(F)c4F)nc23)C1
Reply: 0.3

Ask: Note IC50 for the molecule shown: C=CC(=O)N1CC[C@@H](Nc2ncnc3[nH]c(C#Cc4cccc(OC)c4)cc23)C1
Reply: 11

Ask: Return IC50 for the following molecule: C=CC(=O)N1CC[C@@H](Nc2ncnc3[nH]c(C#Cc4ccccc4Cl)cc23)C1
Reply: 174

Ask: Note down IC50 recorded for COc1cccc(OCC#Cc2nc3c(NC4CCN(C(=O)/C=C/CN(C)C)C4)ncnc3[nH]2)c1 (stereo not shown)
Reply: 0.7

Ask: Quick one: give measured IC50 for C=CC(=O)N1CCN(c2ncnc3[nH]c(C#CCOC)cc23)CC1
Reply: 257

Ask: Specify IC50 for CN(C)C/C=C/C(=O)N1CC[C@@H](Nc2ncnc3[nH]c(C#CCOc4ccccc4)cc23)C1 and stop.
Reply: 0.08

Ask: Output IC50 of C=CC(=O)N1CC[C@@H](Nc2ncnc3[nH]c(C#Cc4ccc(OC(F)(F)F)cc4)cc23)C1
Reply: 215

Ask: Item C=CC(=O)N1CCC(Nc2ncnc3[nH]c(C#CCOc4cccc(Cl)c4)nc23)C1 (stereo not shown) : provide IC50
Reply: 1.9

Ask: Check the records and state IC50 for C=CC(=O)N1CCN(c2ncnc3[nH]c(C#CCOc4ccccc4)nc23)CC1
Reply: 16.4

----------
Tested on: TMD-8 cells
Test: Cell proliferation assay (CellTiter-Glo), TMD-8 cells
Type: cell-based
Details: Homo sapiens, TMD8, 120 h, 5-day treatment, read-out: TMD8 cell growth (GI50 μM)
Method: Cell proliferation assay: TMD-8 and SU-DHL-1 cells were maintained at 37° C. in a humidified atmosphere with 5% CO2 in the recommended medium and serum concentrations. […] IC50 values were calculated using GraphPad Prism by plotting the logarithm of the concentration versus percent inhibition of cell growth as compared with the vehicle control.
reported metric: GI50 (µM)
Kindly answer with a numeric value in µM, unit omitted.

Ask: Could you please provide reported GI50 for C=CC(=O)N1CC[C@@H](Nc2ncnc3[nH]c(C#Cc4ccc5occc5c4)cc23)C1 ? Thanks!
Reply: 0.0012

Ask: Identify measured GI50 corresponding to C=CC(=O)N1CCC(Nc2ncnc3[nH]c(C#CCOc4cc(F)cc(F)c4)nc23)C1 (centres unmarked)
Reply: 0.25

Ask: Consider the compound C=CC(=O)N1CCC(Nc2ncnc3[nH]c(C#CCOc4cccc(Cl)c4)nc23)C1 (centres unmarked) and give its recorded GI50.
Reply: 0.019

Ask: Report GI50 for C=CC(=O)N1CC[C@@H](Nc2ncnc3[nH]c(C#CCOc4cccc(F)c4Cl)nc23)C1
Reply: 0.006

Ask: Given the compound C=CC(=O)N1CC[C@@H](Nc2ncnc3[nH]c(C#Cc4cccc(Cl)c4)cc23)C1 , write its reported GI50.
Reply: 0.01

Ask: State its GI50 for this compound: C=CC(=O)N1CC[C@@H](Nc2ncnc3[nH]c(C#Cc4ccoc4)cc23)C1
Reply: 0.031

Ask: Name the recorded GI50 of the item C=CC(=O)N1CC[C@@H](Nc2ncnc3[nH]c(C#CCOc4ccccc4OC)cc23)C1 in your answer.
Reply: 0.0014

Ask: Assign GI50 to the following record: CN(C)C/C=C/C(=O)N1CC[C@@H](Nc2ncnc3[nH]c(C#Cc4ccccc4F)cc23)C1
Reply: 0.187

----------
System: TMD-8 cells
Test: Cell proliferation assay (CellTiter-Glo), TMD-8 cells
Format: cell-based
Conditions: Homo sapiens, TMD8, 120 h, 5-day treatment, read-out: TMD8 cell growth (GI50 μM)
Method: Cell proliferation assay: TMD-8 and SU-DHL-1 cells were maintained at 37° C. in a humidified atmosphere with 5% CO2 in the recommended medium and serum concentrations. […] IC50 values were calculated using GraphPad Prism by plotting the logarithm of the concentration versus percent inhibition of cell growth as compared with the vehicle control.
reported metric: GI50 (µM)
Provide the reading as a plain figure in µM.

Ask: Look up TMD-8 cells data: GI50 of C=CC(=O)N1CCC(Nc2ncnc3[nH]c(C#CCOc4ccc(OC)cc4)nc23)C1 (centres unmarked) , then report it.
Reply: 0.094

Ask: Look up TMD-8 cells data: GI50 of C=CC(=O)N1CC[C@@H](Nc2ncnc3[nH]c(C#CCOc4c(F)cccc4F)cc23)C1 , then report it.
Reply: 0.014

Ask: Jot down GI50 (TMD-8 cells) of C=CC(=O)N1CC[C@@H](Nc2ncnc3[nH]c(C#CCOc4cc(F)ccc4F)cc23)C1 .
Reply: 0.0038

Ask: # return GI50 for C=CC(=O)N1CC[C@@H](Nc2ncnc3[nH]c(C#CCOc4c(F)cccc4OC)cc23)C1 , test system: TMD-8 cells
Reply: 0.02

Ask: Look up and report measured GI50 (TMD-8 cells) for the following molecule: CN(C)C/C=C/C(=O)N1CCC(Nc2ncnc3[nH]c(C#CCOc4ccc(Cl)cc4)nc23)C1 (centres unmarked)
Reply: 1.8

Ask: // fetch GI50; item: C=CC(=O)N1CC[C@@H](Nc2ncnc3[nH]c(C#CCOc4ccccc4)nc23)C1 ; system: TMD-8 cells
Reply: 0.02

Ask: For TMD-8 cells, give the measured GI50 of the entry O=C(/C=C/CN1CCOCC1)N1CCC(Nc2ncnc3[nH]c(C#CCOc4ccccc4)cc23)C1 (centres unmarked)
Reply: 0.552

Ask: Under TMD-8 cells: report GI50 of C=CC(=O)N1CCC(Nc2ncnc3[nH]c(C#CCOc4ccccc4Cl)nc23)C1 (centres unmarked) .
Reply: 0.002

----------
molecular target: Btk (Homo sapiens, UniProt Q06187); construct: purchased Promega (Madison, Wis.); assay: Btk kinase assay (ADP-Glo); format: biochemical; details: ADP-Glo Btk kinase assay kit; ATP 1.2 μM; 60 minutes at room temperature
Record form. Attribute: IC50. Fill in for each entry.
Numeric answer only, unit µM assumed.

Ask: Indicate its recorded IC50; the molecule in question is C=CC(=O)N1CCC(Nc2ncnc3[nH]c(C#CCOc4ccc(F)cc4)nc23)C1 (stereo not shown)
Reply: 0.0005

Ask: For the molecule C=CC(=O)N1CC[C@@H](Nc2ncnc3[nH]c(C#CCOc4cccc5c4OCO5)cc23)C1 , give its reported IC50.
Reply: 0.008

Ask: Return the recorded IC50 value; entry: O=C(/C=C/CN1CCOCC1)N1CCC(Nc2ncnc3[nH]c(C#CCOc4ccccc4)cc23)C1 (stereo not shown)
Reply: 0.127

Ask: Quick one: give measured IC50 for CN(C)C/C=C/C(=O)N1CCN(c2ncnc3[nH]c(C#CCOc4ccccc4)cc23)CC1
Reply: 0.0033

Ask: Provide one value: measured IC50 of CN(C)C/C=C/C(=O)N1CCC(Nc2ncnc3[nH]c(C#CCOc4ccc(Cl)cc4)nc23)C1 (stereo not shown)
Reply: 0.004

Ask: State, in one line, measured IC50 of C=CC(=O)N1CC[C@@H](Nc2ncnc3[nH]c(C#CCOc4ccccc4OC)nc23)C1
Reply: 0.0002

Ask: Name the recorded IC50 of the item C=CC(=O)Nc1cccc(Nc2ncnc3[nH]c(C#Cc4ccc(Cl)cc4)cc23)c1 in your answer.
Reply: 0.155

Ask: Quickly give me recorded IC50 for C=CC(=O)N1CCC(Nc2ncnc3[nH]c(C#CCOc4ccc(F)c(F)c4)nc23)C1 (stereo not shown)
Reply: 0.015

Ask: Please supply the value of reported IC50 for the item CN(C)C/C=C/C(=O)N1CC[C@@H](Nc2ncnc3[nH]c(C#Cc4cccc(Cl)c4)cc23)C1
Reply: 0.0004

Ask: For C=CC(=O)N1CC[C@@H](Nc2ncnc3[nH]c(C#Cc4ccc(OC)cc4)cc23)C1 , write its IC50.
Reply: 0.023

Ask: Consider the molecule C=CC(=O)N1CC[C@@H](Nc2ncnc3[nH]c(C#CCOc4c(F)cccc4F)cc23)C1 . State its measured IC50.
Reply: 0.014

Ask: Return value of IC50 for input C=CC(=O)N1CC[C@@H](Nc2ncnc3[nH]c(C#Cc4ccc(C(F)(F)F)cc4)cc23)C1 , no commentary.
Reply: 0.272

Ask: Using the record for O=C(/C=C/CN1CCOCC1)N1CCC(Nc2ncnc3[nH]c(C#CCOc4ccccc4)nc23)C1 (stereo not shown) , state its measured IC50.
Reply: 0.06

Ask: Quickly give me recorded IC50 for O=C(/C=C/c1cccs1)N1CCC(Nc2ncnc3[nH]c(C#CCOc4ccccc4)cc23)C1 (stereo not shown)
Reply: 1.18

Ask: // fetch IC50 given entry C=CC(=O)N1CC[C@@H](Nc2ncnc3[nH]c(C#Cc4ccc(Cl)c(F)c4)cc23)C1
Reply: 0.0072

Ask: Name the recorded IC50 of the molecule listed here: C=CC(=O)N1CCC(Nc2ncnc3[nH]c(C#CCOc4ccccc4F)nc23)C1 (stereo not shown)
Reply: 0.0006
